TEST_METHOD_NOTES: Cassette pharmacokinetic study, intravenous or oral administration
Type: in vivo, female Balb/c nude mice
RUN_PARAMETERS: female, Balb/c nude, mouse, whole blood; PO 2 mg/kg, N = 3, cassette
ASSAY_ENDPOINT: log10(AUC(0-inf)) (log10 of the value in ng·h/mL)
Give log10 of AUC(0-inf), with AUC(0-inf) taken in ng·h/mL.

Example entries begin here.
>>> experimental_result("CCS(=O)(=O)Cc1ccc2c(c1)-c1cn(C)c(=O)cc1CN=C2c1ccc(F)cc1 [Compound 4009]")
3.37
>>> experimental_result("CCS(=O)(=O)Nc1ccc2c(c1)-c1cn(C)c(=O)cc1CN=C2c1ccc(F)cc1 [Compound 4018]")
1.99
>>> experimental_result("CCS(=O)(=O)Nc1ccc(Oc2ccc(F)cc2F)c(-c2cn(C)c(=O)c3[nH]ccc23)c1 [ABBV-075]")
3.23
>>> experimental_result("CCS(=O)(=O)Nc1cc2c(cc1Cl)C(c1ccc(F)cc1)=NCc1cc(=O)n(C)cc1-2 [Compound 4031]")
3.52

Lookup result for CCS(=O)(=O)Cc1ccc2c(c1)-c1cn(C)c(=O)cc1[C@H](C)N=C2c1ccc(F)cc1 [Compound 4026] ; measured log10(AUC(0-inf)): 3.61

* * *

TEST_METHOD_NOTES: Metabolic stability in human liver microsomes
Type: in vitro ADME
RUN_PARAMETERS: pH 7.4; human liver microsomes 0.5 mg/mL, NADPH, 37° C.; read-out: HLM_CLint
ASSAY_ENDPOINT: CLint scaled at 1 µM (mL/min/kg)
Field format: number, assumed mL/min/kg, no unit text.

Example entries begin here.
>>> experimental_result("Cn1cc2c(c1C(N)=O)CCN(c1ccc(F)cc1)c1ccc(CS(C)(=O)=O)cc1-2")
45.5
>>> experimental_result("CCS(=O)(=O)Cc1ccc2c(c1)-c1cn(C)c(=O)cc1CN=C2c1ccc(F)cc1F")
1.18
>>> experimental_result("CCS(=O)(=O)Cc1ccc2c(c1)-c1cn(C)c(=O)cc1CN=C2c1ccc(F)cc1")
3.69

Turning to the following compound.
Lookup result for CCS(=O)(=O)Nc1ccc2c(c1)-c1cn(C)c(=O)cc1CN=C2c1ccc(F)cc1 ; measured CLint scaled at 1 µM: 1.67

* * *

TEST_METHOD_NOTES: Metabolic stability in human liver microsomes
Type: in vitro ADME
RUN_PARAMETERS: human liver microsomes 0.5 mg/mL, NADPH, 37° C.
Documented HLM_T1/2 across a set of molecules
Field format: number, assumed min, no unit text.

>>> experimental_result("CCS(=O)(=O)Cc1ccc2c(c1)-c1cn(C)c(=O)cc1CN=C2c1ccc(F)cc1F")
1473.23

Lookup result for C[C@@H]1N=C(c2ccc(F)cc2)c2ccc(CS(=O)(=O)N(C)C)cc2-c2cn(C)c(=O)cc21 ; measured HLM_T1/2: 139.87

Lookup result for CCS(=O)(=O)Nc1ccc(Oc2ccc(F)cc2F)c(-c2cn(C)c(=O)c3[nH]ccc23)c1 ; measured HLM_T1/2: 1465.60

Lookup result for Cn1cc2c(cc1=O)[C@H](CC(N)=O)N=C(c1ccc(Cl)cc1)c1ccccc1-2 ; measured HLM_T1/2: 854.27

Lookup result for CCS(=O)(=O)Cc1ccc2c(c1)-c1cn(C)c(=O)cc1CN=C2c1ccc(Cl)cc1 ; measured HLM_T1/2: 1127.52

Lookup result for CCS(=O)(=O)Cc1ccc2c(c1)-c1nn(C)c(=O)cc1C(C)N=C2c1ccc(F)cc1 (stereo not drawn) ; measured HLM_T1/2: 2952.57

Lookup result for CCS(=O)(=O)Cc1ccc2c(c1)-c1cn(C)c(=O)cc1N(C)N=C2c1ccc(F)cc1 ; measured HLM_T1/2: 727.04

Lookup result for CCS(=O)(=O)Nc1ccc2c(c1)-c1cn(C)c(=O)cc1CN=C2c1ccc(F)cc1 ; measured HLM_T1/2: 1043.26

Lookup result for CCS(=O)(=O)Cc1ccc2c(c1)-c1cn(C)c(=O)cc1CN=C2c1ccc(F)cc1 ; measured HLM_T1/2: 471.41

Lookup result for CCNC(=O)C[C@@H]1N=C(c2ccc(F)cc2)c2cc(OC)ccc2-c2cn(C)c(=O)cc21 ; measured HLM_T1/2: 121.24

Lookup result for Cn1cc2c(c1C(N)=O)CCN(c1ccc(F)cc1)c1ccc(CS(C)(=O)=O)cc1-2 ; measured HLM_T1/2: 38.19

Lookup result for CCNC(=O)C[C@@H]1N=C(c2ccc(Cl)cc2)c2ccccc2-c2cn(C)c(=O)cc21 ; measured HLM_T1/2: 34.22

* * *

Documented IC50 across a set of compounds
SYSTEM_TESTED: BRD4 (BD2) (Homo sapiens, UniProt O60885)
Construct: Each member comprises two tandem bromodomains (BD1 and BD2) for recognizing the acetylated lysine residues
TEST_METHOD_NOTES: BRD4 (BD2) bromodomain binding, HTRF
RUN_PARAMETERS: 2 h incubation at r.t.
Field format: number, assumed nM, no unit text.

Example entries begin here.
>>> experimental_result("CCS(=O)(=O)Nc1ccc2c(c1)-c1cn(C)c(=O)cc1[C@H](C)N=C2c1ccc(F)cc1 [Compound 4049]")
1
>>> experimental_result("CCS(=O)(=O)Cc1ccc2c(c1)-c1cn(C)c(=O)cc1[C@H](C)N=C2c1ccncc1 [Compound 4105]")
1
>>> experimental_result("CCS(=O)(=O)Cc1ccc2c(c1)-c1cn(C)c(=O)cc1CN=C2c1ccc(F)c(OC)c1 [Compound 4089]")
4

Lookup result for CCS(=O)(=O)Cc1cc2c(cn1)C(c1ccc(Cl)cc1)=NCc1cc(=O)n(C)cc1-2 [Compound 4027] ; measured IC50: 6

Lookup result for Cn1cc2c(c1C#N)CCN(c1ccc(F)cc1)c1ccc(CS(C)(=O)=O)cc1-2 [Compound 4004] ; measured IC50: 184

* * *

TEST_METHOD_NOTES: Cassette pharmacokinetic study, intravenous or oral administration
Format: in vivo, female Balb/c nude mice
RUN_PARAMETERS: female, Balb/c nude, mouse, whole blood; IV 0.5 mg/kg, N = 3, cassette
Procedure: Determinations of the pharmacokinetic parameters of ABBV-075 (standard control), 4009, 4018, 4026 and 4031 in femal Balb/c nude mice after intravenous or oral administration. Detailed Experimental Steps: 6 female Balb/c nude mice weighing 18-20 g were divided into two groups (3/group), after fixation, the intravenous group: 0.5 mg/kg (5 mL/kg) injected by caudal vein (N=3); the oral group: 2 mg/kg (10 mL/kg) by intragastic administration (N=3). […]
Labelling: clearance reported below 10 mL/min/kg becomes True; at or above becomes False.

Some entries whose results are on file:
>>> assigned_category("CCS(=O)(=O)Cc1ccc2c(c1)-c1cn(C)c(=O)cc1CN=C2c1ccc(F)cc1")
"False"
>>> assigned_category("CCS(=O)(=O)Nc1ccc2c(c1)-c1cn(C)c(=O)cc1CN=C2c1ccc(F)cc1")
"False"
>>> assigned_category("CCS(=O)(=O)Cc1ccc2c(c1)-c1cn(C)c(=O)cc1[C@H](C)N=C2c1ccc(F)cc1")
"True"
>>> assigned_category("CCS(=O)(=O)Nc1ccc(Oc2ccc(F)cc2F)c(-c2cn(C)c(=O)c3[nH]ccc23)c1")
"False"

INPUT: Could you please tell me whether clearance recorded for CCS(=O)(=O)Nc1cc2c(cc1Cl)C(c1ccc(F)cc1)=NCc1cc(=O)n(C)cc1-2 is less than 10 mL/min/kg?
OUTPUT: False

* * *

Documented MLM_T1/2 across a set of molecules
TEST_METHOD_NOTES: Metabolic stability in mouse liver microsomes
Assay type: in vitro ADME
RUN_PARAMETERS: mouse liver microsomes 0.5 mg/mL, NADPH, 37° C.
Field format: number, assumed min, no unit text.

>>> experimental_result("CCS(=O)(=O)Cc1ccc2c(c1)-c1cn(C)c(=O)cc1CN=C2c1ccc(F)cc1F [Compound 4012]")
1568.22
>>> experimental_result("CCNC(=O)C[C@@H]1N=C(c2ccc(F)cc2)c2cc(OC)ccc2-c2cn(C)c(=O)cc21 [Compound 4023]")
75.05
>>> experimental_result("Cn1cc2c(c1C(N)=O)CCN(c1ccc(F)cc1)c1ccc(CS(C)(=O)=O)cc1-2 [Compound 4002]")
23.42

Lookup result for CCS(=O)(=O)Cc1ccc2c(c1)-c1cn(C)c(=O)cc1N(C)N=C2c1ccc(F)cc1 [Compound 4078] ; measured MLM_T1/2: 195.55

* * *

Documented half-life across a set of compounds
TEST_METHOD_NOTES: Cassette pharmacokinetic study, intravenous or oral administration
Format: in vivo, female Balb/c nude mice
RUN_PARAMETERS: female, Balb/c nude, mouse, whole blood; IV 0.5 mg/kg, N = 3, cassette; read-out: Terminal t1/2 (converted)
Field format: number, assumed h, no unit text.

Example entries begin here.
>>> experimental_result("CCS(=O)(=O)Nc1cc2c(cc1Cl)C(c1ccc(F)cc1)=NCc1cc(=O)n(C)cc1-2")
2.72
>>> experimental_result("CCS(=O)(=O)Nc1ccc2c(c1)-c1cn(C)c(=O)cc1CN=C2c1ccc(F)cc1")
0.685
>>> experimental_result("CCS(=O)(=O)Nc1ccc(Oc2ccc(F)cc2F)c(-c2cn(C)c(=O)c3[nH]ccc23)c1")
2.8
>>> experimental_result("CCS(=O)(=O)Cc1ccc2c(c1)-c1cn(C)c(=O)cc1[C@H](C)N=C2c1ccc(F)cc1")
2.85

Turning to the following compound.
Lookup result for CCS(=O)(=O)Cc1ccc2c(c1)-c1cn(C)c(=O)cc1CN=C2c1ccc(F)cc1 ; measured half-life: 1.69
